Origin of the recorded values: patent US20240376091A1

# SYSTEM TESTED: AR (Homo sapiens, UniProt P10275, T878A)
# Construct: into the androgen-dependent PCa cells (LNCaP); endogenous in cells; host or cells: LNCaP-ARR2PB-eGFP
# TEST DESCRIPTION: AR transcriptional activity, LNCaP-ARR2PB-eGFP reporter cells
# Assay type: cell-based
# CONDITION SET: read-out: IC50 AR transcriptional activities
ASSAY METRIC: IC50 (µM)

[
  {
    "MOLECULE": "CC(Cc1nsc(NC(=O)c2coc(-c3cccc(OC(F)(F)F)c3)c2)n1)N1CCOCC1 (stereo not shown)",
    "IC50, µM": 35.7
  }
]

(I) CC(=O)Cc1nsc(NC(=O)c2cc(-c3cccc(C(N)=O)c3)oc2C)n1
(II) CC(F)(F)Cc1nsc(NC(=O)c2csc(-c3cccc(C(F)(F)F)c3)c2)n1
(III) CCN(CC)Cc1nsc(NC(=O)c2csc(-c3cccc(OC)c3)c2)n1
INPUT: Order the items by recorded IC50; the first position goes to the largest value. Please list each label once, in the requested order.
OUTPUT: II, III, I

----------
# SYSTEM TESTED: AR (Homo sapiens, UniProt P10275, T878A)
# Construct: into the androgen-dependent PCa cells (LNCaP); endogenous in cells; host or cells: LNCaP-ARR2PB-eGFP
# TEST DESCRIPTION: AR transcriptional activity, LNCaP-ARR2PB-eGFP reporter cells
# Assay type: cell-based
# CONDITION SET: read-out: IC50 AR transcriptional activities
pIC50: −log10 of the molar value.
ASSAY METRIC: pIC50

Use these answered entries as a reference point.
[
  {
    "COMPOUND": "CC(=O)Cc1nsc(NC(=O)c2cc(-c3cccc(C(F)(F)F)c3)c(C)o2)n1 [Compound F-1]",
    "pIC50": 4.55
  },
  {
    "COMPOUND": "CC(Cc1nsc(NC(=O)c2cc(-c3cccc(C(F)(F)F)c3)oc2C(F)(F)F)n1)=C(F)F [Compound E-22]",
    "pIC50": 5.84
  },
  {
    "COMPOUND": "CCN(CC)C(C)Cc1nsc(NC(=O)c2cc(-c3cccc(C(F)(F)F)c3)oc2C)n1 (stereo not drawn) [Compound A-39]",
    "pIC50": 6.92
  },
  {
    "COMPOUND": "CC(=O)Cc1nsc(NC(=O)c2cc(-c3cccc(OC(C)=O)c3)oc2C)n1 [Compound A-27]",
    "pIC50": 5.26
  }
]

(P) CC(Cc1nsc(NC(=O)c2cc(-c3cccc(OC(F)F)c3)oc2C(F)(F)F)n1)N1CCN(C)CC1 (stereo not drawn) [Compound E-11]
(Q) COc1cccc(-c2cc(C(=O)Nc3nc(CN(C)C)ns3)c(C)o2)c1 [Compound A-118]
INPUT: Could you kindly indicate whether P or Q has the higher pIC50 value? Write the label of whichever entry you select.
OUTPUT: P

----------
# SYSTEM TESTED: AR (Homo sapiens, UniProt P10275, T878A)
# Construct: into the androgen-dependent PCa cells (LNCaP); endogenous in cells; host or cells: LNCaP-ARR2PB-eGFP
# TEST DESCRIPTION: AR transcriptional activity, LNCaP-ARR2PB-eGFP reporter cells
# Assay type: cell-based
# CONDITION SET: read-out: IC50 AR transcriptional activities
pIC50: −log10 of the molar value.
ASSAY METRIC: pIC50

A selection of reference data follows.
[
  {
    "MOLECULE": "COc1cccc(-c2cc(C(=O)Nc3nc(CC(C)N4CCCCC4)ns3)co2)c1 (centres unmarked)",
    "pIC50": 4.47
  },
  {
    "MOLECULE": "CC(O)Cc1nsc(NC(=O)c2coc(-c3cccc(C(F)(F)F)c3)c2)n1 (centres unmarked)",
    "pIC50": 4.94
  },
  {
    "MOLECULE": "CC(O)Cc1nsc(NC(=O)c2cc(-c3cccc(C(F)(F)F)c3)oc2C(F)(F)F)n1 (centres unmarked)",
    "pIC50": 5.80
  },
  {
    "MOLECULE": "CC(O)(Cc1nsc(NC(=O)c2coc(-c3cccc(C(F)(F)F)c3)c2)n1)C(F)(F)F (centres unmarked)",
    "pIC50": 4.81
  },
  {
    "MOLECULE": "CC(=O)Cc1nsc(NC(=O)c2cc(-c3cccc(C#N)c3)co2)n1",
    "pIC50": 4.45
  },
  {
    "MOLECULE": "CN1CCN(Cc2nsc(NC(=O)c3cc(-c4cccc(OC(F)(F)F)c4)co3)n2)CC1",
    "pIC50": 4.58
  }
]

(A) CC(=O)Cc1nsc(NC(=O)c2cc(-c3cccc(C(F)(F)F)c3)sc2C)n1
(B) Cc1sc(-c2cccc(OC(F)(F)F)c2)cc1C(=O)Nc1nc(CN2CCCC2)ns1
(C) CC(=O)Cc1nsc(NC(=O)c2cc(-c3cccc(Cl)c3)oc2C)n1
(D) CC(=O)Cc1nsc(NC(=O)c2csc(-c3cccc(C#N)c3)c2)n1
(E) CC(O)(Cc1nsc(NC(=O)c2cc(-c3cccc(C(F)(F)F)c3)oc2C(F)(F)F)n1)C(F)(F)F (centres unmarked)
INPUT: // smallest pIC50 at index 0, largest at the end Answer format: the labels, in the requested order.
OUTPUT: D, B, A, C, E
(D: 4.49, B: 4.83, A: 5.03, C: 5.77, E: 6.10)

(1) COc1cccc(-c2cc(C(=O)Nc3nc(CC(C)N4CCCCC4)ns3)cs2)c1 (centres unmarked)
(2) O=C(Nc1nc(CCl)ns1)c1coc(-c2cccc(C(F)(F)F)c2)c1
INPUT: Could you point out whether the larger pIC50 belongs to 1 or to 2 ? Returns: label corresponding to the selected item.
OUTPUT: 2

----------
# SYSTEM TESTED: AR (Homo sapiens, UniProt P10275, T878A)
# Construct: into the androgen-dependent PCa cells (LNCaP); endogenous in cells; host or cells: LNCaP-ARR2PB-eGFP
# TEST DESCRIPTION: AR transcriptional activity, LNCaP-ARR2PB-eGFP reporter cells
# Format: cell-based
# CONDITION SET: read-out: IC50 AR transcriptional activities
ASSAY METRIC: IC50 (µM)

Use these answered entries as a reference point.
[
  {
    "MOLECULE": "[2H]c1c(-c2cccc(C#N)c2)oc(C)c1C(=O)Nc1nc(CC(C)=O)ns1",
    "QUANTITY UNIT": "µM",
    "IC50": 0.72
  },
  {
    "MOLECULE": "O=C(Nc1nc(CN2CCOCC2)ns1)c1csc(-c2cccc(OC(F)F)c2)c1",
    "QUANTITY UNIT": "µM",
    "IC50": 15
  }
]

(1) COc1cccc(-c2coc(C(=O)Nc3nc(CN4CCOCC4)ns3)c2)c1
(2) Cc1sc(-c2cccc(OC(F)F)c2)cc1C(=O)Nc1nc(CC(C)N2CCN(C)CC2)ns1 (centres unmarked)
(3) CN1CCN(Cc2nsc(NC(=O)c3cc(-c4cccc(C#N)c4)oc3C(F)(F)F)n2)CC1
(4) CC(=O)Cc1nsc(NC(=O)c2cc(-c3cccc(Br)c3)oc2C)n1
INPUT: Order the records, beginning with the lowest IC50 and ending with the highest. Returns: the labels listed in the requested order.
OUTPUT: 3, 4, 2, 1

----------
# SYSTEM TESTED: FL-AR^V684A (Homo sapiens, UniProt P10275, V685A)
# Construct: toward full-length (FL)-AR^WT and FL-AR^V684A
# TEST DESCRIPTION: Luciferase reporter assay in PC3 cells, AR V684A
# CONDITION SET: read-out: IC50 toward FL-AR^V684A
ASSAY METRIC: IC50 (nM)
I only need the number, in nM, no unit after it.

INPUT: Give the reported IC50 for this compound. `CC(=O)Cc1nsc(NC(=O)c2cc(-c3cccc(C(F)(F)F)c3)oc2C)n1`
OUTPUT: 60

----------
# SYSTEM TESTED: AR (Homo sapiens, UniProt P10275, T878A)
# Construct: into the androgen-dependent PCa cells (LNCaP); endogenous in cells; host or cells: LNCaP-ARR2PB-eGFP
# Sequence (P10275 1-920 T878A): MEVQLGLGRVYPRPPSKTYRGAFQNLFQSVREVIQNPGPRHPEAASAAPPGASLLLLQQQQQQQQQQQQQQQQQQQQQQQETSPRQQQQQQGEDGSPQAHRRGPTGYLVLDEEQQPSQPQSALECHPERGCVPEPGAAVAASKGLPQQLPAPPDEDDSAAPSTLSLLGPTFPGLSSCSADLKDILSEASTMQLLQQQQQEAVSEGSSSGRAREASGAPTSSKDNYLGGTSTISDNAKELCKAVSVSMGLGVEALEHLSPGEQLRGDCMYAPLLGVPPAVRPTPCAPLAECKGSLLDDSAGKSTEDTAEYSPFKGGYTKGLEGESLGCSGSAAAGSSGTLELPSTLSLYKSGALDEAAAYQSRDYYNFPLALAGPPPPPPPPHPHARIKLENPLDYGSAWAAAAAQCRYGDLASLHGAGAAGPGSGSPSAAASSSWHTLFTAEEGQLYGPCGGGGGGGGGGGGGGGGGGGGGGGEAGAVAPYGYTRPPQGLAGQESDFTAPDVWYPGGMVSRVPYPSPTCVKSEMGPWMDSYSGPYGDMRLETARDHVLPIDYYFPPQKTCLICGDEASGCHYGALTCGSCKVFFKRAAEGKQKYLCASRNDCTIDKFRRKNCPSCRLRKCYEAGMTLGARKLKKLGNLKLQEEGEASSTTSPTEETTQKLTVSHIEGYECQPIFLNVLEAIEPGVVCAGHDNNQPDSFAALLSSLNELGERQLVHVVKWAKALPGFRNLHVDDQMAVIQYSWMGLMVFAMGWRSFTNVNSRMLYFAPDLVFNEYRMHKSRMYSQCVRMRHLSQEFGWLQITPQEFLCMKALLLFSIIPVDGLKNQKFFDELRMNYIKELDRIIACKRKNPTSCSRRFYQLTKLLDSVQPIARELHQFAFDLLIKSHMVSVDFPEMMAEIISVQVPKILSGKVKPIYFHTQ
# TEST DESCRIPTION: AR transcriptional activity, LNCaP-ARR2PB-eGFP reporter cells
# Format: cell-based
# CONDITION SET: read-out: IC50 AR transcriptional activities
pIC50: −log10 of the molar value.
ASSAY METRIC: pIC50

[
  {
    "MOLECULE": "Cc1oc(-c2cccc(C(F)(F)F)c2)cc1C(=O)Nc1nc(CC(C)N2CCOCC2)ns1 (stereo not shown) [Compound A-42]",
    "pIC50": 6.44
  },
  {
    "MOLECULE": "CC(Cc1nsc(NC(=O)c2csc(-c3cccc(C(F)(F)F)c3)c2)n1)=C(F)F [Compound D-30]",
    "pIC50": 4.46
  },
  {
    "MOLECULE": "Cc1sc(-c2cccc(C(F)(F)F)c2)cc1C(=O)Nc1nc(CC(C)N(C)C)ns1 (stereo not shown) [Compound C-6]",
    "pIC50": 4.48
  },
  {
    "MOLECULE": "CC(Cc1nsc(NC(=O)c2coc(-c3cccc(C#N)c3)c2)n1)N1CCCC1 (stereo not shown) [Compound B-12]",
    "pIC50": 4.63
  },
  {
    "MOLECULE": "CC(Cc1nsc(NC(=O)c2csc(-c3cccc(OC(F)(F)F)c3)c2)n1)N1CCOCC1 [Compound D-16]",
    "pIC50": 4.62
  }
]

(a) Cc1sc(-c2cccc(C#N)c2)cc1C(=O)Nc1nc(CC(C)N2CCCCC2)ns1 (stereo not shown) [Compound C-12]
(b) O=C(Nc1nc(CN2CCCCC2)ns1)c1csc(-c2cccc(OC(F)F)c2)c1 [Compound D-56]
(c) COc1cccc(-c2cc(C(=O)Nc3nc(CC(C)N4CCOCC4)ns3)oc2C)c1 (stereo not shown) [Compound F-8]
(d) CC(Cc1nsc(NC(=O)c2cc(-c3cccc(C(F)(F)F)c3)oc2C(F)(F)F)n1)N1CCCC1 (stereo not shown) [Compound E-6]
(e) CC(=O)Cc1nsc(NC(=O)c2cc(-c3cccc(OC(F)(F)F)c3)oc2C(F)(F)F)n1 [Compound E-4]
INPUT: Order each entry by recorded pIC50, climbing from the minimum. Output the labels ranked as instructed.
OUTPUT: b, c, a, d, e
(b: 4.38, c: 4.75, a: 5.24, d: 5.47, e: 6.26)
